target: T1, recombinant biotinylated human CD71 extracellular domain (human, UniProt P02786 89-760, biotinylated); assay: solution ELISA, signal ratio to HSA
T1 construct: extracellular domain; also called hCD71; huCD71 ECD
T1 sequence (P02786 other isoform, or with tags, fused parts or gaps): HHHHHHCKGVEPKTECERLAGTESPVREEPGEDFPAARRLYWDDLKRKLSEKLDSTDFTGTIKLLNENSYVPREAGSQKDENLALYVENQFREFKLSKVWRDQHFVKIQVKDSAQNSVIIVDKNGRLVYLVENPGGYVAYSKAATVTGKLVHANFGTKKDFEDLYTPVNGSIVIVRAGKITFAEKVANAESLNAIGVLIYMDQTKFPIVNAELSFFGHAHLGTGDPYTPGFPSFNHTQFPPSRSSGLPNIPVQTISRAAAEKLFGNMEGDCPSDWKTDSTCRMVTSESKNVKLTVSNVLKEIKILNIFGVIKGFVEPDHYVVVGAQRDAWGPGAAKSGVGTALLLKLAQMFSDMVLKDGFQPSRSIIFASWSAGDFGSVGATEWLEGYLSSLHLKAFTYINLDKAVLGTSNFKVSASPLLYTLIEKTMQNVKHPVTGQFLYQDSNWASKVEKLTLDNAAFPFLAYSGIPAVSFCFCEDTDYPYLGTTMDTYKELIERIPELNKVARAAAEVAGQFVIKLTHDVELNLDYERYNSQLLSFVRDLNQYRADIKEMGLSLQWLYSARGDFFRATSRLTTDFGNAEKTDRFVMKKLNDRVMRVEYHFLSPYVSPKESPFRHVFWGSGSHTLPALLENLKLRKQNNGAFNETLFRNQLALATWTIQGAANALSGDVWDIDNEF
RECORDED_ENDPOINT: hCD71:HSA

(1) SEQ ID NO 184 (designed binder, FN3 domain) MLPAPKNLVVSRVTEDSARLSWTAPDAAFDSFFIGYLEPQPPGEAIDLAVPGSERSYDLTGLKPGTEYSVLIHGVKGGLLSSPLSFTT
(2) SEQ ID NO 121 (designed binder, FN3 domain) MLPAPKNLVVSRVTEDSARLSWTAPDAAFDSFFIGYLEPQPPGEAIALWVPGSERSYDLTGLKPGTEYNVTIQGVKGGFPSMPLSAIFTT
(3) SEQ ID NO 157 (designed binder, FN3 domain) MLPAPKNLVVSRVTEDSARLSWTAPDAAFDSFYIAYAEPRPDGEAILLHVPGSERSYDLTGLKPGTEYSVLIHGVKGGLLSSPLSAISTT
(4) SEQ ID NO 183 (designed binder, FN3 domain) MLPAPKNLVVSRVTEDSARLSWTAPDAAFDSFYIAYAEPRPDGEAILLDVPGSERSYDLTGLKPGTEYSVLIHGVKGGFPSMPLSAIFTT
(5) SEQ ID NO 105 (designed binder, FN3 domain) MLPAPKNLVVSRVTEDSARLSWTAPDAAFDSFYIAYAEPRPDGEAIFLVVPGSERSYDLTGLKPGTEYSVLIHGVKGGLLSSPLHANFTT
Task: Task for the reader: place the binders above in descending order according to recorded hCD71:HSA. Write the labels out in the order the request specifies.
Output: 2, 5, 3, 4, 1
(2: 269, 5: 142, 3: 94.9, 4: 50.3, 1: 27.9)

(P) SEQ ID NO 148 (designed binder, FN3 domain) MLPAPKNLVVSRVTEDSARLSWTAPDAAFDSFYIAYAEPRPDGEAIALHVPGSERSYDLTGLKPGTEYSVLIHGVKGGLLSSPLRAVFTT
(Q) SEQ ID NO 160 (designed binder, FN3 domain) MLPAPKNLVVSRVTEDSARLSWTAPDAAFDSFYIAYAEPRPDGEAIVLTVPGSERSYDLTGLKPGTEYSVLIHGVKGGLLSSPLLAYFTT
(R) SEQ ID NO 194 (designed binder, FN3 domain) MLPAPKNLVVSRVTEDSARLSWTAPDAAFDSFYIAYAEPRPDGEAIALLVPGSERSYDLTGLKPGTEYSVLIHGVKGGLLSSPLSAIVTT
Task: # ascending order, key=hCD71:HSA Write the labels out in the order the request specifies.
Output: P, R, Q
